measured_on: Endoribonuclease toxin MazF (Escherichia coli K-12)
Sequence (P0AE70 whole entry): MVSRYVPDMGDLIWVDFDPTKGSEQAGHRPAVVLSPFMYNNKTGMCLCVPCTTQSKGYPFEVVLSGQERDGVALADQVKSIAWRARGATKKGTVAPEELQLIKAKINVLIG
test_name: MazF toxin RNase activators, dose response, biochemical, fluorescence, single-stranded RNA substrate, uHTS hits (AID 588481)
Format: functional
The source made the active and inactive calls.
Outcome codes: active, inactive

> print(dat)
                                   compound                               measured.on     class
1  CC1=Nc2ccccc2/C1=C\c1nc(-c2ccc(C(F)(F)F)cc2)oc1O  Endoribonuclease toxin MazF (Escherichia coli K-12)  inactive
2  CCn1c(/C=C/c2c(C)n(CC)c3ccccc23)nc2ccccc2c1=O  Endoribonuclease toxin MazF (Escherichia coli K-12)  inactive
3  N#C/C(=C(/O)c1ccc([N+](=O)[O-])o1)c1nc2ccccc2[nH]1  Endoribonuclease toxin MazF (Escherichia coli K-12)  inactive
4  Cc1cc(/C=C2\C(=O)NC(=O)N(c3cccc(Br)c3)C2=O)c(C)n1C  Endoribonuclease toxin MazF (Escherichia coli K-12)  inactive
5  O=C(O)C(c1ccccc1)N1C(=O)/C(=C\c2ccc(-c3cccc(Cl)c3)o2)SC1=S (stereo not drawn)  Endoribonuclease toxin MazF (Escherichia coli K-12)  inactive
6  Cc1ccc(-n2nnnc2SCc2nc3sc(C)c(C)c3c(=O)[nH]2)cc1  Endoribonuclease toxin MazF (Escherichia coli K-12)  inactive
7         Cc1cc(C)c(C#N)c(SCC(=O)c2cccs2)n1  Endoribonuclease toxin MazF (Escherichia coli K-12)    active
8  O=[N+]([O-])c1ccc(/C=C/c2ccc3cccc(O)c3n2)cc1  Endoribonuclease toxin MazF (Escherichia coli K-12)  inactive

* * *

Quick reference: EC50 of the listed items.
test_name: Luminescence Cell-Based Dose Confirmation HTS to Identify Activators of 5'UTR Stem-Loop Driven Alpha-Synuclein mRNA Translation in H4 Neuroglioblastoma Cells. [Related pubchem assays: 1829 (Project Summary), 1814 (Primary HTS)]
Format: functional
Active and inactive are the calls of the source.
metric_name: EC50

> print(dat)
                                   compound  metric.name             data.value
1  COCCN(C(=O)COC(=O)/C=C/c1ccccc1Cl)c1c(N)n(Cc2ccccc2)c(=O)[nH]c1=O         EC50       26.2 µM (active)
2  COc1cccc(CNC(=O)CN2C(=O)CSc3ccc(S(=O)(=O)N4CCCCC4)cc32)c1         EC50  > 120 µM (not active)
3    O=C(NC(=S)NCc1nc2ccccc2[nH]1)c1ccccc1F         EC50       70.7 µM (active)
4  COc1cccc(/C=C/C(=O)OC(C)C(=O)Nc2c(C)n(C)n(-c3ccccc3)c2=O)c1 (stereo unspecified)         EC50       10.5 µM (active)
5  O=[N+]([O-])c1cc([N+](=O)[O-])c2cc3ccccc3nc2c1         EC50  > 120 µM (not active)
6  COc1cccc2cc(CC(=O)c3ccc(C)cc3C)c(=O)oc12         EC50       43.3 µM (active)

* * *

measured_on: UniProtKB Q03530
Sequence (Q03530 whole entry): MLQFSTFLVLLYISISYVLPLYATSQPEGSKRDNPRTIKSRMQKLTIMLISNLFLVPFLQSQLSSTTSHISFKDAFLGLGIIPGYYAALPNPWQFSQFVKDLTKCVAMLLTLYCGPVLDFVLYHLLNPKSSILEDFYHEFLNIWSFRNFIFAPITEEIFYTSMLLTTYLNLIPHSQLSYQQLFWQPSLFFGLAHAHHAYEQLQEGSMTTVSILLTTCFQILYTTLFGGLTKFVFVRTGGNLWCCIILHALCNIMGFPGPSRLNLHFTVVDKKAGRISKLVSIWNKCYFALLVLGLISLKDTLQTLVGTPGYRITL
Assay type: biochemical
The source made the active and inactive calls.
metric_name: AC50

> print(dat)
                                   molecule        data.value
1  Cc1oc2c(CN3CCCC3)c(O)ccc2c(=O)c1-c1ccc(Br)cc1    12 µM (active)
2         CN1CCN(C(=O)c2ccc(-c3cccs3)s2)CC1  32.5 µM (active)
3  CC(C)N1CCN(Cc2ccc(OCc3ccccc3)cc2)CC1CCO (stereo not given)  72.9 µM (active)
4  COc1ccc(C)cc1NC(=O)CCC(=O)Nc1ccc2nc(N3CCN(C)CC3)cc(C)c2c1  16.4 µM (active)
5  COc1ccc2c(c1)c1ncn(CCN3CCCCC3)c(=O)c1n2C  13.9 µM (active)

* * *

Parameter: AC50. Scope: all listed entries.
measured_on: Heat shock protein HSP 90-alpha (Homo sapiens)
Format: functional, organism-based
Active and inactive are the calls of the source.
metric_name: AC50

> print(dat)
                                   compound  metric.name         data.value
1              CCCCCCCCCCCCCCCC[N+](C)(C)CC         AC50   1.16 µM (active)
2  O=C(N/N=C\c1c(O)ccc2ccccc12)c1cncc(Br)c1         AC50   4.06 µM (active)
3  Cc1ccc(-n2ncc3c2CCCC3NC(=O)c2ccccc2N2CCOCC2)cc1C (stereo unspecified)         AC50  0.984 µM (active)
4   C=CCc1c(C)c(C#N)c2nc3ccccc3n2c1NCCN(C)C         AC50   4.45 µM (active)
5  COc1ccc(NC(=O)/C(Cl)=C(/Cl)[S+]([O-])Cc2ccccc2)cn1 (stereo unspecified)         AC50      2 µM (active)
6             Cc1ccc(N=Nc2ccc(O)cc2)c(Br)c1         AC50   7.83 µM (active)

* * *

measured_on: Corticotropin-releasing factor receptor 2/Corticotropin-releasing factor-binding protein (Homo sapiens, UniProt P24387+Q13324)
Sequence (Q13324 whole entry): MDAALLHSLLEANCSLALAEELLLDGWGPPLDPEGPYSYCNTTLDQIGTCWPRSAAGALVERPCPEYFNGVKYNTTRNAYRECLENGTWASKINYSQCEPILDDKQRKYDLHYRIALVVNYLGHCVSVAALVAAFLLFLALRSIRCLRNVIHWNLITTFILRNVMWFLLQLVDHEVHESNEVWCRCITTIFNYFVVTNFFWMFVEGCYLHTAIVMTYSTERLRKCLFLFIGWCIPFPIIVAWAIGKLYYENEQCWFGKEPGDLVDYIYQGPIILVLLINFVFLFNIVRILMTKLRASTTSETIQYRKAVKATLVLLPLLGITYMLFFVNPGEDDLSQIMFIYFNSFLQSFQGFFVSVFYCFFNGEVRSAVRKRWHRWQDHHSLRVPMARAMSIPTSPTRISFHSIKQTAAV
Sequence (P24387 whole entry): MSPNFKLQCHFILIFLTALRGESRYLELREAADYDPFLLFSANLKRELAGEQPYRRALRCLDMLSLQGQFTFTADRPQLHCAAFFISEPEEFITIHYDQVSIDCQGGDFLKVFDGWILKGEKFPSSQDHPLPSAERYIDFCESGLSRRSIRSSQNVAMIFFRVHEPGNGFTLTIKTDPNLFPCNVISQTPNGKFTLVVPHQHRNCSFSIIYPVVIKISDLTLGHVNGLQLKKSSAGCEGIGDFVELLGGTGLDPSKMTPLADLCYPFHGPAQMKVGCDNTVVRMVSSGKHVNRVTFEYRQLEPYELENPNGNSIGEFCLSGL
test_name: activators of CRF receptor 2 with binding protein – uHTS hits, confirmation (AID 602473)
Assay type: functional
condition: read-out: EC50_Mean
Active and inactive are the calls of the source.
Classes used: active, inactive

> print(dat)
                              sample.smiles     class
1  CCCCNC(=O)c1cn(CC)c2ccc(S(=O)(=O)N3CCCCCC3)cc2c1=O  inactive
2  COc1ccc(Cl)cc1NC(=O)c1cccc([N+](=O)[O-])c1O  inactive
3           CCOc1ccc(S(=O)(=O)Nc2cccnc2)cc1  inactive
4              CCn1c(COc2ccccc2C)nc2ccccc21    active
5  Cc1cc(/C=C2\C(=O)NC(=O)N(c3cccc(Br)c3)C2=O)c(C)n1C    active
6  COc1ccc(CC(=O)ONC(=N)c2cccc([N+](=O)[O-])c2)cc1  inactive

* * *

measured_on: Sentrin-specific protease 6 (Homo sapiens, UniProt Q9GZR1)
Sequence (Q9GZR1 whole entry): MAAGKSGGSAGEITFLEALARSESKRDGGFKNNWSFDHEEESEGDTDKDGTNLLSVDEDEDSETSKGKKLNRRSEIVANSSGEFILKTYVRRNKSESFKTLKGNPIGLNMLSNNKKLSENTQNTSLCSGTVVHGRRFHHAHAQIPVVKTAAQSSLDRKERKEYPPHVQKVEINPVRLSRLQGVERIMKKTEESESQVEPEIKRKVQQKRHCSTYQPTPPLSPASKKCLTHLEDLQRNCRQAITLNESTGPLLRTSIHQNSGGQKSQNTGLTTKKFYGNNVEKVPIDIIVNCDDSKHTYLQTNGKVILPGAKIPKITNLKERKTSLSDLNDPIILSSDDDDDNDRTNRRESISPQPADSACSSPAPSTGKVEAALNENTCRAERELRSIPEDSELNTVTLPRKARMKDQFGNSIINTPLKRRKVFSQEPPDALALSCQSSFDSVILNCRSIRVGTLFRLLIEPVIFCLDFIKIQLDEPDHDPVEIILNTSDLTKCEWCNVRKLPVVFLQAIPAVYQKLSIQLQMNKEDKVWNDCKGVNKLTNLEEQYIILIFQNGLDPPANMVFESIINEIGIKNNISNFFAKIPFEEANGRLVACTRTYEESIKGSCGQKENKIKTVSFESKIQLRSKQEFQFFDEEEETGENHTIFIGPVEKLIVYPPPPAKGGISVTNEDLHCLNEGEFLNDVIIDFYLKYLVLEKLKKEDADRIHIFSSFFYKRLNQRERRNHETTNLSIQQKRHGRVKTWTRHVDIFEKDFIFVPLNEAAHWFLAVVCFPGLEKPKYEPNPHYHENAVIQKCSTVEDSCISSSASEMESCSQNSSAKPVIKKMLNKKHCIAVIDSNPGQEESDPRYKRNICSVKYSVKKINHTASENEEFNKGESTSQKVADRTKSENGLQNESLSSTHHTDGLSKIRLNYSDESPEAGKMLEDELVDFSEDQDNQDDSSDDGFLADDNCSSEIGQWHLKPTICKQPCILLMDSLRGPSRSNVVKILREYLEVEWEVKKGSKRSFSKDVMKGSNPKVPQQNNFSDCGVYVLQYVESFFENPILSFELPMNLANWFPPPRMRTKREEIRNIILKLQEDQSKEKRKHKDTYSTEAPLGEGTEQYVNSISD
Type: functional
Active and inactive are the calls of the source.
metric_name: IC50

> print(dat)
                              sample.smiles         data.value
1  O=C(O)c1ccc(-c2ccc(OS(=O)(=O)c3ccccc3F)cc2)cc1     35 µM (active)
2  Cc1c(C(=O)O)cccc1-c1ccc(/C=C2/NC(=O)N(c3ccccc3)C2=O)o1   28.6 µM (active)
3  Cc1ccc(S(=O)(=O)/N=C2\C=C(Nc3cccc(C(=O)O)c3)C(=O)c3ccccc32)c(C)c1  0.819 µM (active)
4                  Nc1ccc(N2CCCCC2)c2nonc12   9.43 µM (active)

* * *

measured_on: DNA repair protein RAD52 homolog (Homo sapiens, UniProt P43351)
Sequence (P43351 whole entry): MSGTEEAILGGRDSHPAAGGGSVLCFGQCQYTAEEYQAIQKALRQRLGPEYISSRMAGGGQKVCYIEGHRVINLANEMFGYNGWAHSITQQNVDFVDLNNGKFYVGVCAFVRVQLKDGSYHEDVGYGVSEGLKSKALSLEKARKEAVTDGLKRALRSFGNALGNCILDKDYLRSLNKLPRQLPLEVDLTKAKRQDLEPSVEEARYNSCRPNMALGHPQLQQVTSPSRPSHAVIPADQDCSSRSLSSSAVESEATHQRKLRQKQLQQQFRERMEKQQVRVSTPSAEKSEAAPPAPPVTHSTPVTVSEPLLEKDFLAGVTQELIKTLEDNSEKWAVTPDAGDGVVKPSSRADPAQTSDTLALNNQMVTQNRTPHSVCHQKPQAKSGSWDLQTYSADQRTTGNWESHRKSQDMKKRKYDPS
Format: functional, biochemical
Calls of active or inactive are those of the source.
Form field: AC50 (one value per entry).
metric_name: AC50

> print(dat)
                                   molecule  metric.name          data.value
1              CCCCCCCCCCCCCCCC[N+](C)(C)CC         AC50    8.98 µM (active)
2  CCN1CCN(Cc2c(C(=O)N/N=C(\C)c3ccc(Cl)cc3)nnn2-c2nonc2N)CC1         AC50    8.73 µM (active)
3  COc1cc2c(oc(=O)c3cc(C)cc(OC)c32)c2c(C3OC(C)C(O)C(C)(O)C3O)ccc(O)c12 (configuration not stated)         AC50    18.8 µM (active)
4  CN1CCN(CCCNc2nc3ccccc3c3nc(-c4ccccc4)nn23)CC1         AC50    14.2 µM (active)
5      COc1ccc2[nH]c3c(C)c4ccncc4c(C)c3c2c1         AC50  < 11.1 µM (active)
6  CCSc1ccc2c(c1)N(CCCN1CCN(C)CC1)c1ccccc1S2         AC50    14.9 µM (active)
7  CCCN(CCC)CCCNC(=O)c1cc2c(-c3ccc(OC)c(OC)c3)nn(C)c2s1         AC50    3.41 µM (active)

* * *

measured_on: Leucine aminopeptidase (Plasmodium falciparum 3D7, UniProt Q8IL11)
Sequence (Q8IL11 whole entry): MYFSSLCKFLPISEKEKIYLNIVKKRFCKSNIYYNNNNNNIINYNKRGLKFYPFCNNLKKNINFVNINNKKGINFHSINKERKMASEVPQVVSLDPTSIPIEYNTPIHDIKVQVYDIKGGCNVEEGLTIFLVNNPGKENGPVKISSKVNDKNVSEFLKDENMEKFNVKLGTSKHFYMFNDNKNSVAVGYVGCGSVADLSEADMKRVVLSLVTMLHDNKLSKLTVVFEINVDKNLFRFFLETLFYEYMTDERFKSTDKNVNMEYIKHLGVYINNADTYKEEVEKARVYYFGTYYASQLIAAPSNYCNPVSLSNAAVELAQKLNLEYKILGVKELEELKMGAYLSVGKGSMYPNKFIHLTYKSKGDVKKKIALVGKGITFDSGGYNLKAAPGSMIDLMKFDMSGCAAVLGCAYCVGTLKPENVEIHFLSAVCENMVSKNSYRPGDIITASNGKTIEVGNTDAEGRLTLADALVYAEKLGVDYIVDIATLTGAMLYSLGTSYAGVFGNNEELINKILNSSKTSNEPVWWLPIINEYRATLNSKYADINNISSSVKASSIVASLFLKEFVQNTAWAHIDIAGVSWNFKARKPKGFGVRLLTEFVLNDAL
test_name: P. falciparum M17LAP inhibitors, primary screen, biochemical, fluorogenic H-Leu-NHMec substrate, 1536-well (AID 1619)
Format: functional
Active and inactive are the calls of the source.
Each entry below carries its recorded IC50.
metric_name: IC50

> print(dat)
                                   compound                               measured.on        data.value
1  COc1nccnc1NS(=O)(=O)c1ccc(/N=C/c2c(C)[nH]n(-c3ccccc3)c2=O)cc1  Leucine aminopeptidase (Plasmodium falciparum 3D7, UniProt Q8IL11)    35 µM (active)
2      O=C(c1ccco1)c1c[nH]nc1-c1ccc(Cl)cc1O  Leucine aminopeptidase (Plasmodium falciparum 3D7, UniProt Q8IL11)   101 µM (active)
3  COc1ccccc1-c1nnc2n1N=C(c1ccc(O)c(O)c1)CS2  Leucine aminopeptidase (Plasmodium falciparum 3D7, UniProt Q8IL11)  39.2 µM (active)
4         O=C(O)CSCC(=O)Nc1ccc(C2CCCCC2)cc1  Leucine aminopeptidase (Plasmodium falciparum 3D7, UniProt Q8IL11)  12.6 µM (active)
5  N#CC1=C(N)Oc2nc(-c3ccccc3)[nH]c2C1c1cccnc1 (configuration not stated)  Leucine aminopeptidase (Plasmodium falciparum 3D7, UniProt Q8IL11)  66.6 µM (active)
6  CCOc1ccc(NC(=O)CSc2n[nH]c(N)n2)c([N+](=O)[O-])c1  Leucine aminopeptidase (Plasmodium falciparum 3D7, UniProt Q8IL11)  12.7 µM (active)
7   Cn1c(NC(=O)/C=C\c2ccccc2)cc(=O)n(C)c1=O  Leucine aminopeptidase (Plasmodium falciparum 3D7, UniProt Q8IL11)  78.4 µM (active)
